# assayed system: ScBem1-D1
# assay name: SPOT peptide array binding signal intensity (averaged, normalized) (arbitrary units (background-subtracted, floor 0; scale differs between SH3 domains)); higher = stronger binding of the SH3 domain to the peptide
assay readout: SPOT peptide array binding signal intensity

binder=TIRRRAPLSLLESHT qualifier_operator== data_value=22.5
binder=LKPPIGRPPKFPKSP qualifier_operator=≤ data_value=0
binder=SGVRLPAPPPPPRRG qualifier_operator=≤ data_value=0
binder=NRARYLPQNPDIIAG qualifier_operator== data_value=7
